# method: Plasma protein binding rate, human plasma (equilibrium dialysis)
# Format: in vitro ADME
# conditionSummary: pH 7.4, equilibrium dialysis 6 h, 37° C.
quantityMeasured: fraction unbound at 6 h, 1 μM
Reply with just the number.

Task item: Dear colleague, I am looking for the recorded fraction unbound at 6 h, 1 μM of the following compound: "C[C@]12C=CC(=O)C=C1CC[C@@H]1[C@@H]2[C@@H](O)C[C@@]2(C)[C@H]1C[C@H]1O[C@@H](c3ccc(Cc4cc(N)c5c(c4)CCO5)cc3)O[C@]12C(=O)CO"
Reply: 0.002

----------
# Tested on: K562-GRE reporter gene
# method: K562-GRE reporter gene activity
# Type: cell-based
# conditionSummary: 24 h, read-out: K562-GRE Reporter EC50
Please assign Condition not met whenever EC50 is at or above 2 nM, and Condition met whenever it is below.

Example cases with answers are listed next.
C[C@]12C=CC(=O)C=C1CC[C@@H]1[C@@H]2[C@@H](O)C[C@@]2(C)[C@H]1C[C@H]1O[C@@H](c3ccc(Cc4ccc(N)c5c4CCO5)cc3)O[C@]12C(=O)CO [Compound 001] :: Condition not met
C[C@]12C=CC(=O)C=C1[C@@H](F)C[C@H]1[C@@H]3C[C@H]4O[C@@H](c5ccc(Cc6ccc(N)c7c6CCO7)cc5)O[C@@]4(C(=O)CO)[C@@]3(C)C[C@H](O)[C@@]12F [Compound 010] :: Condition met

Task item: EC50 strictly < 2 nM for this compound? C[C@]12C=CC(=O)C=C1[C@@H](F)C[C@H]1[C@@H]3C[C@H]4O[C@@H](c5ccc(Cc6ccc7c(c6)OCCN7)cc5)O[C@@]4(C(=O)CO)[C@@]3(C)C[C@H](O)[C@@]12F [Compound 006]
Reply: Condition met

Task item: EC50 strictly < 2 nM for this compound? C[C@]12C=CC(=O)C=C1CC[C@@H]1[C@@H]2[C@@H](O)C[C@@]2(C)[C@H]1C[C@H]1O[C@@H](c3ccc(Cc4ccc(N)c5ncoc45)cc3)O[C@]12C(=O)CO [Compound 007]
Reply: Condition not met

Task item: EC50 strictly < 2 nM for this compound? C[C@]12C=CC(=O)C=C1CC[C@@H]1[C@@H]2[C@@H](O)C[C@@]2(C)[C@H]1C[C@H]1O[C@@H](c3ccc(Cc4cc(N)c5c(c4)CCO5)cc3)O[C@]12C(=O)CO [Compound 009]
Reply: Condition not met

Task item: EC50 strictly < 2 nM for this compound? C[C@]12C=CC(=O)C=C1CC[C@@H]1[C@@H]2[C@@H](O)C[C@@]2(C)[C@H]1C[C@H]1O[C@@H](c3ccc(Cc4ccc5c(c4)NCC5)cc3)O[C@]12C(=O)CO [Compound 004]
Reply: Condition not met

----------
# studySystem: CYP2C9 (Homo sapiens (Human))
# Sequence (P11712 whole entry): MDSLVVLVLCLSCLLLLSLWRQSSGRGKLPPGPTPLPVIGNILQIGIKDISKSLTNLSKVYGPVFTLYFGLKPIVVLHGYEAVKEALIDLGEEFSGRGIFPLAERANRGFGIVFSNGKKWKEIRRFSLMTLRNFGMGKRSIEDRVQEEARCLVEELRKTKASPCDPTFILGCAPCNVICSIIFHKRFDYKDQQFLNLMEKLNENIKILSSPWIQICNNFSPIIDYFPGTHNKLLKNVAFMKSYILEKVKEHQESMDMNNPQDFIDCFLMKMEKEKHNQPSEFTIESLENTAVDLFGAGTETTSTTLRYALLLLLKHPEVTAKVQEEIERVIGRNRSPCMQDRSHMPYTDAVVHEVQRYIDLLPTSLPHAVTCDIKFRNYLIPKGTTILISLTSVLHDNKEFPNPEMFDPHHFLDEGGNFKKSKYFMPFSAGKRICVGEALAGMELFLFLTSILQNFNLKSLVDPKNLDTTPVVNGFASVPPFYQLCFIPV
# method: Inhibition of CYP2C9 enzymatic activity in human liver microsomes
# Type: in vitro ADME
# conditionSummary: human liver microsome, substrate diclofenac, 5 min
quantityMeasured: pIC50
// scale note: pIC50 = -log10(conc_M); give the bare number

Task item: Dear colleague, I am looking for the recorded pIC50 of the following compound: "C[C@]12C=CC(=O)C=C1CC[C@@H]1[C@@H]2[C@@H](O)C[C@@]2(C)[C@H]1C[C@H]1O[C@@H](c3ccc(Cc4cc(N)c5c(c4)CCO5)cc3)O[C@]12C(=O)CO"
Reply: 5.14

----------
# method: Membrane permeability and transport properties (Caco-2)
# Format: in vitro ADME
# conditionSummary: human, pH 7.4, Caco-2, 10 μM, apical to basal
quantityMeasured: Papp A→B at 2 h, 10 μM

Task item: Dear colleague, I am looking for the recorded Papp A→B at 2 h, 10 μM of the following molecule: C[C@]12C=CC(=O)C=C1CC[C@@H]1[C@@H]2[C@@H](O)C[C@@]2(C)[C@H]1C[C@H]1O[C@@H](c3ccc(Cc4cc(N)c5c(c4)CCO5)cc3)O[C@]12C(=O)CO [Compound 009]
Reply: 0.73 ×10⁻⁶ cm/s

----------
# studySystem: Glucocorticoid Receptor GR (Homo sapiens (Human), UniProt P04150)
# Sequence (P04150 whole entry): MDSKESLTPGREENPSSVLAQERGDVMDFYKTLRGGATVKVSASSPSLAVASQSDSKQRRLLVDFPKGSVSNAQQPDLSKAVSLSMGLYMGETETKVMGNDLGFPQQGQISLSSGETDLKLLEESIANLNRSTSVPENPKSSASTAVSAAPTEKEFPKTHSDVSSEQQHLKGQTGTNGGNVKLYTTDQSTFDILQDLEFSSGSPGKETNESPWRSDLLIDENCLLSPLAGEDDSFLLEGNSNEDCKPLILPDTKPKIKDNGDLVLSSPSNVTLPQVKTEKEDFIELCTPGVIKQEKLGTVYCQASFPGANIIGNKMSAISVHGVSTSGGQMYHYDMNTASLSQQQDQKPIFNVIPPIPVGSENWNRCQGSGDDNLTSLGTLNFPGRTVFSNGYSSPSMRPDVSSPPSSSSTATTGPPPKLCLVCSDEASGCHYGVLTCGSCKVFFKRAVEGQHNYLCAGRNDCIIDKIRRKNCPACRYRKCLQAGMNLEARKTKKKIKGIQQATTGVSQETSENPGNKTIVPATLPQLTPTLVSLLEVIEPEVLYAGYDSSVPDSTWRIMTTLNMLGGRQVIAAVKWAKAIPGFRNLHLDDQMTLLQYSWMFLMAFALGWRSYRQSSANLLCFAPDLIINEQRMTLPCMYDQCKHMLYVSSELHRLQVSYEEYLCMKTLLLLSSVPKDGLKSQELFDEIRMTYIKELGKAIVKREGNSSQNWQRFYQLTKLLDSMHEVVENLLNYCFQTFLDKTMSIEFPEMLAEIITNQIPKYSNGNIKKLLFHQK
# method: Binding activity to glucocorticoid receptor GR (Polarscreen fluorescence polarization kit)
# conditionSummary: GR full length, 2 h
pEC50 values for the compounds below.
// scale note: pEC50 = -log10(conc_M); give the bare number

Example cases with answers are listed next.
C[C@]12C=CC(=O)C=C1CC[C@@H]1[C@@H]2[C@@H](O)C[C@@]2(C)[C@H]1C[C@H]1O[C@@H](c3ccc(Cc4ccc(N)c5ncoc45)cc3)O[C@]12C(=O)CO [Compound 007] :: 7.77
C[C@]12C=CC(=O)C=C1CC[C@@H]1[C@@H]2[C@@H](O)C[C@@]2(C)[C@H]1C[C@H]1O[C@@H](c3ccc(Cc4cc(N)c5c(c4)CCO5)cc3)O[C@]12C(=O)CO [Compound 009] :: 7.69
C[C@]12C=CC(=O)C=C1CC[C@@H]1[C@@H]2[C@@H](O)C[C@@]2(C)[C@H]1C[C@H]1O[C@@H](c3ccc(Cc4ccc5c(c4)NCC5)cc3)O[C@]12C(=O)CO [Compound 004] :: 7.37

Okay, now this compound:
Task item: Dear colleague, I am looking for the recorded pEC50 of the following compound: C[C@]12C=CC(=O)C=C1CC[C@@H]1[C@@H]2[C@@H](O)C[C@@]2(C)[C@H]1C[C@H]1O[C@@H](c3ccc(Cc4ccc(N)c5c4CCO5)cc3)O[C@]12C(=O)CO [Compound 001]
Reply: 7.88

----------
# method: Membrane permeability and transport properties (Caco-2)
# Type: in vitro ADME
# conditionSummary: human, pH 7.4, Caco-2, 10 μM, basal to apical
quantityMeasured: Papp B→A at 2 h, 10 μM (×10⁻⁶ cm/s)
Only the number, expressed in ×10⁻⁶ cm/s, is required.

Task item: Dear colleague, I am looking for the recorded Papp B→A at 2 h, 10 μM of the following compound: C[C@]12C=CC(=O)C=C1CC[C@@H]1[C@@H]2[C@@H](O)C[C@@]2(C)[C@H]1C[C@H]1O[C@@H](c3ccc(Cc4cc(N)c5c(c4)CCO5)cc3)O[C@]12C(=O)CO [Compound 009]
Reply: 3.86

----------
# studySystem: UniProt:P10635
# Sequence (P10635 whole entry): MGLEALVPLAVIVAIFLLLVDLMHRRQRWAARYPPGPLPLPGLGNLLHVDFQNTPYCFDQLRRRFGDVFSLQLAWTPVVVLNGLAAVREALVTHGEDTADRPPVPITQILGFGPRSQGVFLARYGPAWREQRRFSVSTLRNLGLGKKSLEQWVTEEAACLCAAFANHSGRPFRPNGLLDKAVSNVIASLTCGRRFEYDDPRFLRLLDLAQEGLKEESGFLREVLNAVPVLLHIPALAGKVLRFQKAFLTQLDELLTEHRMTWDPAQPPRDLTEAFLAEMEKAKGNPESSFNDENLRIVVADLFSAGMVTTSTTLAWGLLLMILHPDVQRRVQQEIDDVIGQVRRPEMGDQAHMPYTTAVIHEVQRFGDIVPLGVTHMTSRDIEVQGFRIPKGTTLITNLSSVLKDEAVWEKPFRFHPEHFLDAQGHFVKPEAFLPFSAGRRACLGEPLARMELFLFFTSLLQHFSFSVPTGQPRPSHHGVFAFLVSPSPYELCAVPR
# method: Inhibition of CYP2D6 enzymatic activity in human liver microsomes
# Format: in vitro ADME
# conditionSummary: human liver microsome, substrate dextromethorphan, 20 min
# Experimental: The inhibition of CYP2C9 and CYP2D6 activity by the compound of the present invention was determined using the following method. • 1. Human liver microsome (Corning 452117) • 2. NADPH (Solarbio 705Y021) • 3. […] The reduction of metabolite production in the treatment groups versus the control group was compared by the peak area ratios of the sample to the internal standard, and the IC50 value was calculated using Excel XLfit 5.3.1.3.
quantityMeasured: IC50

Task item: Dear colleague, I am looking for the recorded IC50 of the following compound: "C[C@]12C=CC(=O)C=C1CC[C@@H]1[C@@H]2[C@@H](O)C[C@@]2(C)[C@H]1C[C@H]1O[C@@H](c3ccc(Cc4cc(N)c5c(c4)CCO5)cc3)O[C@]12C(=O)CO"
Reply: > 50 µM
